assay: Chronic toxicity per os for two months in rats; settings: rat, in vivo, po, read-out: Dose not resulting in any toxic phenomenon
Observation type: NOAEL at 1460 h

1) O=C(Nc1nc(-c2ccccc2)cs1)OCC(Cl)(Cl)Cl    ≤ 30 mg/kg/day

* * *

The reader will find reported Solubility in DMA values listed item by item below.
assay: Solubility; details: DMA
Observation type: Solubility in DMA

1. CCCCCCCCCCCCCCCCCC(=O)Nc1nc(-c2ccccc2)cs1 [F 1656, 4-phenyl 2-stearamido thiazole]    20%
2. O=C(Nc1nc(-c2ccc(Cl)cc2)cs1)Oc1ccccc1 [F 1687]    5%
3. CCOC(=O)Nc1nc(-c2ccccc2)cs1 [F 1658, 4-phenyl 2-(ethoxycarboxamido) thiazole]    25%
4. O=C(O)CCC(=O)Nc1nc(-c2ccccc2)cs1 [F 1657, N(4-phenyl 2-thiazolyl) succinamic acid]    20%
5. O=C(Nc1nc(-c2ccccc2)cs1)Oc1ccccc1 [F 1659, 4-phenyl 2-phenoxy carbamoyl thiazole]    4%
6. O=C(Nc1nc(-c2ccccc2)cs1)OCC(Cl)(Cl)Cl [F 1686]    25%
7. O=C(Nc1nc(-c2ccccc2)cs1)c1cccnc1 [F 1684, N(4-phenyl 2-thiazolyl) nicotinamide]    5%
8. O=C(Nc1nc(-c2ccc(Cl)cc2)cs1)c1cccnc1 [F 1685]    20%
9. O=C(Nc1nc(-c2ccc(Cl)cc2)cs1)OCC(Cl)(Cl)Cl [F 1660]    20%
10. CCCCCCCCCCCC(=O)Nc1nc(-c2ccccc2)cs1 [F 1655]    25%
11. O=C(O)CCC(=O)Nc1nc(-c2ccc(Cl)cc2)cs1 [F 1683]    20%
